Target: UniProtKB Q7ZJM1
Sequence (Q7ZJM1 whole entry): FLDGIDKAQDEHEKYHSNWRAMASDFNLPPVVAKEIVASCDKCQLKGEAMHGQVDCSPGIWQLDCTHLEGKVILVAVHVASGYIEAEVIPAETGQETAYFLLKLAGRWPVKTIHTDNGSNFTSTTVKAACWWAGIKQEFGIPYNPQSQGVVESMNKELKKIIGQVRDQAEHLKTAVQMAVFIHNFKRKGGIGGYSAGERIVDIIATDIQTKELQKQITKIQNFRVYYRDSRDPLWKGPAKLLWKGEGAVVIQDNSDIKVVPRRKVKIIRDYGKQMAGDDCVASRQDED
Assay: Inhibitory activity against 3' processing by HIV integrase
Category | rule: reported IC50 within range, see b0: < 20 µM; b1: ≥ 20 µM and < 60 µM; b2: ≥ 60 µM

| compound | labelValue |
| --- | --- |
| Cc1cc(S(=O)(=O)Nc2nnc3c4c(C)csc4ncn23)c(S)cc1Cl | b0 |
| O=C1NC(=S)SC1NS(=O)(=O)c1ccc(-c2ncccn2)cc1 (stereo not drawn) | b1 |
| Cc1cc(S(=O)(=O)Nc2nnc3c4ccccc4ccn23)c(S)cc1Cl | b0 |
| Cc1ccc(-n2cnnc2NS(=O)(=O)c2cc(C(=O)Nc3ccc(Cl)cc3)c(Cl)cc2S)cc1 | b0 |
| Cc1cc(S(=O)(=O)Nc2nc(N)nc3nc4ccccc4n23)c(S)cc1Cl | b0 |
| Cc1cc(S(=O)(=O)Nc2nc(N)nc(N(C)C)n2)c(S)cc1Cl | b2 |
| NS(=O)(=O)c1ccc(/N=N/C2Sc3nc4ccccc4n3C2=O)cc1 (stereo not drawn) | b2 |
| O=C(Nc1ccccc1)c1cc(S(=O)(=O)Nc2nncn2-c2ccc(F)cc2)c(S)cc1Cl | b1 |
| Cc1ccc(Nc2n[nH]c(NS(=O)(=O)c3cc(C)c(Cl)cc3S)n2)cc1 | b1 |
| CCCCn1cnnc1NS(=O)(=O)c1cc(C(N)=O)c(Cl)cc1SCC(=O)O | b2 |
| Cc1cc(S(=O)(=O)Nc2nnc3cnc4ccccc4n23)c(S)cc1Cl | b1 |
| Cc1cc(S(=O)(=O)Nc2nnc(Nc3ccccc3)[nH]2)c(S)cc1Cl | b0 |
| CCCn1cnnc1NS(=O)(=O)c1cc(C(=O)Nc2ccc(C)cc2)c(Cl)cc1S | b1 |
| Cc1ccc(-n2cnnc2NS(=O)(=O)c2cc(C(=O)Nc3ccccc3)c(Cl)cc2S)cc1 | b0 |
| O=C(CC(Sc1[nH]cnc2ncnc1-2)Sc1[nH]cnc2ncnc1-2)Nc1ccc(S(=O)(=O)Nc2ccc(/N=N/c3ccccc3)cc2)cc1 | b2 |
| Cc1ccc(Nc2nc(NS(=O)(=O)c3cc(C)c(Cl)cc3S)n(C)n2)cc1 | b1 |
| O=C(Nc1ccc(F)cc1)c1cc(S(=O)(=O)Nc2nncn2-c2ccc(F)cc2)c(S)cc1Cl | b2 |

====

Biological target: UniProt Q7ZJM1
Experiment: Inhibitory activity against DNA strand transfer by HIV integrase
pIC50: −log10 of the molar value.
Overview of reported pIC50 across a group of compounds:

| givenSmiles | pIC50 |
| --- | --- |
| O=C(Nc1ccccc1)c1cc(S(=O)(=O)Nc2nncn2-c2ccc(Cl)cc2)c(S)cc1Cl | 4.92 |
| Cc1cc(S(=O)(=O)Nc2nc(Nc3ccc(Cl)cc3)nn2C)c(S)cc1Cl | 4.75 |
| Cc1cc(S(=O)(=O)Nc2nnc3c(Cl)cc(C(F)(F)F)cn23)c(S)cc1Cl | 4.68 |
| Cc1cc(S(=O)(=O)NC2=NCCCN2)c(S)cc1Cl | 3.84 |
| CCCCn1cnnc1NS(=O)(=O)c1cc(C(=O)NCc2ccccc2)c(Cl)cc1S | 4.15 |
